For each record, write down the corresponding Kd.
- Target: T1, His-tagged human LILRB2 polypeptide (human, UniProt Q8N423 22-460)
- T1 construct: SPR analyte; also called His-tagged human LILBR2 polypeptide; not shown: His tag
- T1 sequence (Q8N423 22-460 limits assumed): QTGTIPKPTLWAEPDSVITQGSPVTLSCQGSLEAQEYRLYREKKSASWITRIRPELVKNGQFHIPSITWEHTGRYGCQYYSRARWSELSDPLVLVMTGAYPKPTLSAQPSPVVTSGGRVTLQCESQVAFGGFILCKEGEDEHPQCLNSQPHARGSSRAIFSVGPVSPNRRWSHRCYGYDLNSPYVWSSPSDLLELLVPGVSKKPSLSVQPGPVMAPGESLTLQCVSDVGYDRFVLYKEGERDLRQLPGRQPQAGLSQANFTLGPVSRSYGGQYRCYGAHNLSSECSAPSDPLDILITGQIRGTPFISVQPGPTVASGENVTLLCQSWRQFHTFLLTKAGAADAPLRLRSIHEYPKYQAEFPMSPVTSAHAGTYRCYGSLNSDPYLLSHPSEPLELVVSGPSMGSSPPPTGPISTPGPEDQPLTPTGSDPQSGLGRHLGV
- Test summary: SPR, antibody on CM5 chip, His-LILRB2 analyte, 1:1 model
Answers are plain numbers, in nM.

{"columns": ["Binder", "Kd (nM)"],
 "data": [
  ["Antibody 14C11 (antibody, V domains shown, Mouse hybridoma mAb purified from ascites) VH: EVQLQQSGPDLVKPGASVKISCKASGYIFTDFNMHWVKQSHGKSLEWIGYIYPFNGGTGYNQKFENKATLTVDNSSSTAYMEVRSLTSEDSAVYYCARRGGRGHFDYWGQGTTLTVSS VL: DIQMTQSPASLSASVGETVTVTCRASGNIHNYLAWYQQKQGKSPQLLVYNAKTLADGVPSRFSGSGSGTQFSLKINSLQPEDFGSYYCQHFWNTPFTFGSGTKLEIK", 0.962],
  ["Antibody 7G4 (antibody, V domains shown, Mouse hybridoma mAb purified from ascites) VH: QVQLKQSGPGLVQPSQSLSITCTVSGFSLATYGVHWVRQSPGKGLEWLGVMWRDGSTDYNAVFMSRLSITKDDSKSQVFFKMNSLQADDTAIYYCAKNPYLYGSSHYYAMDYWGQGTSVTVSS VL: DIVMTQSPSSLSVSAGEKVTMSCKSSQSLLNSENQKNYLAWYQQKPGQPPKLLIYGASTRESGVPDRFTGSGSGTDFTLTISSVQAEDLAVYYCQNDHIYPFTFGSGTKLEIK", 1.57],
  ["Antibody 12D8 (antibody, V domains shown, Mouse hybridoma mAb purified from ascites) VH: QVQLRQSGPGLVQPSQSLSITCTVSGFSLTSYGVHWVRQSPGKGLEWLGVIWSGGITDYNAAFISRLSISKDNSKSQVFFRMNSLQTNDTAIYYCAREIYGNPDYWGQGTTLTVSS VL: DIVMTQSHKFMSTSVGDRVSITCKASQDVSIAVAWFQQKPGQSPKLLIYSASYRYTGVPDRFSGSGSGTDFTFTISSVQAEDLAVYYCQQHYSTPRTFGGGTKLEIK", 0.227],
  ["Antibody 10D7 (antibody, V domains shown, Mouse hybridoma mAb purified from ascites) VH: EVKLVESGGGLVKPGGSLKLSCAASGFTFSSYGMSWVRQTPEKRLEWVATISGAFSYTYYPDSVKGRFTISRDNAKNNLYLQMSSLRSEDTAFYYCARHDNSLYYAMDYWGQGTSVTVSS VL: NVQITQSPSYLAASPGETITINCRTSKSITKYLAWYQEQPGKTNKLLIYSGSTLQSGIPSRFSGSGSGTDFTLTISSLEPEDFAMYYCQQHNEYPWTFGGGTKLEIK", 0.317]
]}

Now for another entry.
So what's the measured Kd for this one? Antibody 9H6 (antibody, V domains shown, Mouse hybridoma mAb purified from ascites) VH: EVQLQQSGAELVRPGALVKLSCKASGFNVKDYYMHWVKQRPEQGLEWIGWIDPKNGNGIYDPKFQGKASITADTSSNTAYLQLSSLTSEDTSVYYCARGDYFGSSYLFAYWGQGTLVTVSA VL: DIVMTQSHKFMSTSVGDRVSITCKASQDVSTAVAWYQQKPGQSPKLLIYSASYRYTGVPDRFTGSGSGTDFTFTISSVQAEDLAVYYCQQHYSTPWTFGGGAKLEIK
0.0257
